The reported numbers originate from patent US10543212B2.

- TARGET OR SYSTEM: Full-length, GST-tagged, human CaMKIIδ (Homo sapiens, UniProt Q13557)
- Construct: Full-Length, Glutathione-S-Transferase(GST)-Tagged, Human CaMKIIδ was purchased from Carna Biosciences; purchased Carna Biosciences 02-111
- Sequence (Q13557 1-478 isoform Q13557-12): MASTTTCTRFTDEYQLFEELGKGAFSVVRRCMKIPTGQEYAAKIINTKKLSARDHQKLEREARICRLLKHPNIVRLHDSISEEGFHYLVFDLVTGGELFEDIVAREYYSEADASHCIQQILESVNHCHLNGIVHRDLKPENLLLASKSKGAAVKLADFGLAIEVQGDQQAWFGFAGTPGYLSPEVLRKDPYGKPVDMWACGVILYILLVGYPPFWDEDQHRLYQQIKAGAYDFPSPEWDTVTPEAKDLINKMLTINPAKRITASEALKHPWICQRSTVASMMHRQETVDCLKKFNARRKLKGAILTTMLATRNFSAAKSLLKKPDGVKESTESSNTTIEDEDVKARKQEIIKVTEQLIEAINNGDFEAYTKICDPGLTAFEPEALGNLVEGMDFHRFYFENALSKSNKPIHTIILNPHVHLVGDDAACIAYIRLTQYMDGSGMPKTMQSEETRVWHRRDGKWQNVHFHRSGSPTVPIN
- ASSAY NOTES: CaMKIIδ binding assay (TR-FRET with BODIPY-labeled probe ligand)
- EXPERIMENTAL PARAMETERS: Table 2; activity class for CaMKIIδ
PROPERTY: IC50

Consider the reported IC50 for these molecules:
C[C@@H](Cn1cnnn1)Oc1cc(-c2cnc(Nc3cn(C4C[C@@H]5CC[C@H]4C5)nc3C(F)(F)F)nc2)ccc1Cl (some centres unmarked)	≥ 100 nM
C[C@@H](CO)Cn1cc(Nc2ncc(-c3ccc(Cl)c(O[C@@H](C)Cn4cnnn4)c3)cn2)c(C(F)(F)F)n1	10 to 100 nM
COc1cc(N2CCN(C3CCOC3)CC2)ncc1Nc1ncc(-c2ccc(Cl)c(O[C@@H](C)Cn3cnnn3)c2)cn1 (some centres unmarked)	10 to 100 nM
Cc1c(Nc2ncc(-c3ccc(Cl)c(O[C@@H](C)Cn4cnnn4)c3)cn2)cnn1C	10 to 100 nM
COc1ccc(N2CCN(C(=O)CN(C)C)CC2)cc1Nc1ncc(-c2ccc(Cl)c(O[C@@H](C)Cn3cnnn3)c2)cn1	< 10 nM
COc1ccc(N2CCN(C)CC2)cc1Nc1ncc(-c2ccc(Cl)c(O[C@@H](C)Cn3cnnn3)c2)cn1	< 10 nM
COc1nc(N2CCN(CC3COC3)CC2)ccc1Nc1ncc(-c2ccc(Cl)c(O[C@@H](C)Cn3cnnn3)c2)cn1	10 to 100 nM
COc1ccc(N2CC(CN3CCOCC3)C2)cc1Nc1ncc(-c2ccc(Cl)c(O[C@@H](C)Cn3cnnn3)c2)cn1	< 10 nM

Quick one: IC50 for C[C@@H](Cn1cnnn1)Oc1cc(-c2cnc(Nc3cn([C@@H]4CCCC[C@H]4O)nc3C(F)(F)F)nc2)ccc1Cl (mixture of isomers) ? < 10 nM

Quick one: IC50 for C[C@@H](Cn1cnnn1)Oc1cc(-c2cnc(Nc3cn(C4CN(C5COC5)C4)nc3C(F)(F)F)nc2)ccc1Cl ? 10 to 100 nM

Quick one: IC50 for C[C@@H](Cn1cnnn1)Oc1cc(-c2cnc(Nc3cnn(CC4CC4)c3)nc2)ccc1Cl ? 10 to 100 nM

Quick one: IC50 for COc1ccc(C(=O)N2CCN(C3COC3)CC2)cc1Nc1ncc(-c2ccc(Cl)c(O[C@@H](C)Cn3cnnn3)c2)cn1 ? 10 to 100 nM

Quick one: IC50 for C[C@@H](Cn1cnnn1)Oc1cc(-c2cnc(Nc3cc(C4CCN(C5COC5)CC4)c(F)cc3F)nc2)ccc1Cl ? 10 to 100 nM

Quick one: IC50 for Cc1ncc(N2CC(N3CCOCC3)C2)cc1Nc1ncc(-c2ccc(Cl)c(O[C@@H](C)Cn3cnnn3)c2)cn1 ? 10 to 100 nM

====

- TARGET OR SYSTEM: Human full-length CaMKIIδ (Homo sapiens)
- Construct: Human full-length CaMKIIδ (Cat #02-111) was obtained from Carna Biosciences; GST; purchased Carna Biosciences 02-111
- ASSAY NOTES: Human CaMKII enzyme inhibition assay (radiometric kinase assay)
- Format: biochemical
- EXPERIMENTAL PARAMETERS: 3 μM compound; 500 nM ATP; 0.5 nM CaMKIIδ; read-out: CaMKIIδ inhibitory activity (%) at 3 μM
Measured inhibition at 3 µM values are reported for all entries that follow.
Lab book: enter the figure in %, no units written.

Consider the reported inhibition at 3 µM for these compounds:
COc1nn(C)cc1Nc1ncc(-c2ccc(C#N)c(O[C@@H](C)Cn3cncn3)c2)cn1 [Example 375]	97
COc1cc(N2CCN(C3COC3)CC2)ccc1Nc1ncc(-c2ccc(Cl)c(O[C@@H](C)Cn3cnnn3)c2)cn1 [Example 197]	97
COc1cc(C(=O)N2CC3(CN(C)C3)C2)ccc1Nc1ncc(-c2ccc(C#N)c(O[C@@H](C)Cn3cncn3)c2)cn1 [Example 147]	95
CC(C)n1cc(Nc2ncc(-c3ccc(C#N)c(O[C@@H](C)Cn4cnnn4)c3)cn2)cn1 [Example 374]	97
COc1cc(C(=O)N2CCN(C)CC2)ccc1Nc1ncc(-c2ccc(C#N)c(O[C@@H](C)Cn3cncn3)c2)cn1 [Example 73]	97
COc1cc(C(=O)N2CC3(CN(C)C3)C2)ccc1Nc1ncc(-c2ccc(C#N)c(O[C@@H](C)Cn3cnnn3)c2)cn1 [Example 172]	100
COc1cc(N2CCC(N3CCOCC3)CC2)c(F)cc1Nc1ncc(-c2ccc(Cl)c(O[C@@H](C)Cn3cnnn3)c2)cn1 [Example 205]	99
COc1cc(C2CCNCC2)ccc1Nc1ncc(-c2ccc(C#N)c(O[C@@H](C)Cn3cncn3)c2)cn1 [Example 50]	99

Quick one: inhibition at 3 µM for COc1cc(N2CCC(N3C4CCC3COC4)CC2)ccc1Nc1ncc(-c2ccc(Cl)c(O[C@@H](C)Cn3cnnn3)c2)cn1 [Example 210] ? 100

====

Measured IC50 values are reported for all entries that follow.
- TARGET OR SYSTEM: Full-length, GST-tagged, human CaMKIIδ (Homo sapiens, UniProt Q13557)
- Construct: Full-Length, Glutathione-S-Transferase(GST)-Tagged, Human CaMKIIδ was purchased from Carna Biosciences; purchased Carna Biosciences 02-111
- ASSAY NOTES: CaMKIIδ binding assay (TR-FRET with BODIPY-labeled probe ligand)
- EXPERIMENTAL PARAMETERS: Table 2; activity class for CaMKIIδ

COc1ccc(C(=O)N2CCCN(CCO)CC2)cc1Nc1ncc(-c2ccc(Cl)c(O[C@@H](C)Cn3cnnn3)c2)cn1	< 10 nM
C[C@@H](Cn1cnnn1)Oc1cc(-c2cnc(Nc3cn(C4CCOCC4)nc3C(F)(F)F)nc2)ccc1Cl	10 to 100 nM
C[C@@H](Cn1cnnn1)Oc1cc(-c2cnc(Nc3cn(CCNC(=O)c4ccccc4)nc3C(F)(F)F)nc2)ccc1Cl	≥ 100 nM
C[C@@H](Cn1cnnn1)Oc1cc(-c2cnc(Nc3cn([C@H]4CC[C@@H](C(=O)O)CC4)nc3C(F)(F)F)nc2)ccc1Cl	≥ 100 nM
COc1cc(N2C[C@@H]3C[C@H]2CN3)ccc1Nc1ncc(-c2ccc(Cl)c(O[C@@H](C)Cn3cnnn3)c2)cn1	10 to 100 nM
C[C@@H](Cn1cnnn1)Oc1cc(-c2cnc(Nc3cn(Cc4n[nH]c(=O)[nH]4)nc3C(F)(F)F)nc2)ccc1Cl	≥ 100 nM
C[C@@H](Cn1cnnn1)Oc1cc(-c2cnc(Nc3cn(C4CCCNC4)nc3C(F)(F)F)nc2)ccc1Cl (some centres unmarked)	< 10 nM
COc1cc(N2CCN(C3CCOCC3)C[C@@H]2C)ccc1Nc1ncc(-c2ccc(Cl)c(O[C@@H](C)Cn3cnnn3)c2)cn1	< 10 nM

Quick one: IC50 for C[C@@H](Cn1cnnn1)Oc1cc(-c2cnc(Nc3cn(CC4CNC4)nc3C(F)(F)F)nc2)ccc1Cl ? < 10 nM

Quick one: IC50 for C[C@@H](Cn1cnnn1)Oc1cc(-c2cnc(Nc3cn(C4Cc5ccccc5C4)nc3C(F)(F)F)nc2)ccc1Cl ? ≥ 100 nM

Quick one: IC50 for C[C@@H](Cn1cnnn1)Oc1cc(-c2cnc(Nc3cn(C4CCNC4)nc3C(F)(F)F)nc2)ccc1Cl (some centres unmarked) ? < 10 nM

Quick one: IC50 for CCC(C)n1cc(Nc2ncc(-c3ccc(Cl)c(O[C@@H](C)Cn4cnnn4)c3)cn2)c(C(F)(F)F)n1 (some centres unmarked) ? 10 to 100 nM

Quick one: IC50 for COc1cc(N2CCN3CCCC3C2)ccc1Nc1ncc(-c2ccc(Cl)c(O[C@@H](C)Cn3cnnn3)c2)cn1 (some centres unmarked) ? < 10 nM

Quick one: IC50 for COc1ccc(N2CC(N3CCOCC3)C2)cc1Nc1ncc(-c2ccc(Cl)c(O[C@@H](C)Cn3cnnn3)c2)cn1 ? 10 to 100 nM

====

- TARGET OR SYSTEM: Full-length, GST-tagged, human CaMKIIδ (Homo sapiens, UniProt Q13557)
- Construct: Full-Length, Glutathione-S-Transferase(GST)-Tagged, Human CaMKIIδ was purchased from Carna Biosciences; purchased Carna Biosciences 02-111
- ASSAY NOTES: CaMKIIδ binding assay (TR-FRET with BODIPY-labeled probe ligand)
- EXPERIMENTAL PARAMETERS: Table 2; CaMKIIδ binding assay, activity given as class A/B/C
pIC50: −log10 of the molar value. Counter-ions that a name gives are not always drawn.
PROPERTY: pIC50

C[C@@H](Cn1cnnn1)Oc1cc(-c2cnc(Nc3cn([C@H]4CC[C@H](N5CCOCC5)CC4)nc3OCC(F)(F)F)nc2)ccc1C#N [Example 817, hydrochloride]	> 8.00
C[C@@H](Cn1cnnn1)Oc1cc(-c2cnc(Nc3cn([C@@H](C)CO)nc3OCC(F)(F)F)nc2)ccc1Cl [Example 775]	> 8.00
C[C@@H](Cn1cnnn1)Oc1cc(-c2cnc(Nc3cn(C4CCN(C)CC4)nc3OCC(F)F)nc2)ccc1Cl [Example 793]	> 8.00
C[C@@H](Cn1cnnn1)Oc1cc(-c2cnc(Nc3cn([C@H]4CC[C@@H](N5CC(C)(O)C5)CC4)nc3OCC(F)(F)F)nc2)ccc1Cl [Example 801]	> 8.00
C[C@@H](Cn1cnnn1)Oc1cc(-c2cnc(Nc3cn(C4CCCCO4)nc3OCC(F)(F)F)nc2)ccc1C#N (stereo partly shown) [Example 763]	> 8.00

Kindly state the measured pIC50 obtained for C[C@@H](Cn1cnnn1)Oc1cc(-c2cnc(Nc3nc4ccccc4n3C)nc2)ccc1Cl [Example 745] with Full-length, GST-tagged, human CaMKIIδ (Homo sapiens, UniProt Q13557). ≤ 7.00

Kindly state the measured pIC50 obtained for C[C@@H](Cn1cnnn1)Oc1cc(-c2cnc(Nc3cn(C4CCNCC4)nc3OCC(F)F)nc2)ccc1Cl [Example 791] with Full-length, GST-tagged, human CaMKIIδ (Homo sapiens, UniProt Q13557). > 8.00

Kindly state the measured pIC50 obtained for C[C@@H](Cn1cnnn1)Oc1cc(-c2cnc(Nc3cn(C4CCN(C5CCOCC5)CC4)nc3C(F)F)nc2)ccc1Cl [Example 769] with Full-length, GST-tagged, human CaMKIIδ (Homo sapiens, UniProt Q13557). > 8.00

Kindly state the measured pIC50 obtained for C[C@@H](Cn1cnnn1)Oc1cc(-c2cnc(Nc3cn(C4CC5(C4)CN(C4CCOCC4)C5)nc3OCC(F)(F)F)nc2)ccc1Cl [Example 795] with Full-length, GST-tagged, human CaMKIIδ (Homo sapiens, UniProt Q13557). > 8.00

Kindly state the measured pIC50 obtained for CCn1cc(Nc2ncc(-c3ccc(Cl)c(O[C@@H](C)Cn4cnnn4)c3)cn2)c(C(=O)N2CCOCC2)n1 [Example 866] with Full-length, GST-tagged, human CaMKIIδ (Homo sapiens, UniProt Q13557). 7.00 to 8.00

Kindly state the measured pIC50 obtained for C[C@@H](Cn1cnnn1)Oc1cc(-c2cnc(Nc3cn([C@H]4CC[C@@H](N5CCOCC5)CC4)nc3C(F)(F)F)nc2)ccc1F [Example 807] with Full-length, GST-tagged, human CaMKIIδ (Homo sapiens, UniProt Q13557). 7.00 to 8.00

Kindly state the measured pIC50 obtained for C[C@@H](Cn1cnnn1)Oc1cc(-c2cnc(Nc3cn([C@H]4CC[C@H](N5CC(O)(C(F)(F)F)C5)CC4)nc3C(F)(F)F)nc2)ccc1Cl [Example 857] with Full-length, GST-tagged, human CaMKIIδ (Homo sapiens, UniProt Q13557). > 8.00

Kindly state the measured pIC50 obtained for C[C@@H](Cn1cnnn1)Oc1cc(-c2cnc(Nc3cn(C)nc3OCC(F)(F)F)nc2)ccc1C#N [Example 765] with Full-length, GST-tagged, human CaMKIIδ (Homo sapiens, UniProt Q13557). > 8.00
